system: TRPV3 (G573S) (Homo sapiens, UniProt Q8NET8, G573S)
Sequence (Q8NET8 whole entry G573S): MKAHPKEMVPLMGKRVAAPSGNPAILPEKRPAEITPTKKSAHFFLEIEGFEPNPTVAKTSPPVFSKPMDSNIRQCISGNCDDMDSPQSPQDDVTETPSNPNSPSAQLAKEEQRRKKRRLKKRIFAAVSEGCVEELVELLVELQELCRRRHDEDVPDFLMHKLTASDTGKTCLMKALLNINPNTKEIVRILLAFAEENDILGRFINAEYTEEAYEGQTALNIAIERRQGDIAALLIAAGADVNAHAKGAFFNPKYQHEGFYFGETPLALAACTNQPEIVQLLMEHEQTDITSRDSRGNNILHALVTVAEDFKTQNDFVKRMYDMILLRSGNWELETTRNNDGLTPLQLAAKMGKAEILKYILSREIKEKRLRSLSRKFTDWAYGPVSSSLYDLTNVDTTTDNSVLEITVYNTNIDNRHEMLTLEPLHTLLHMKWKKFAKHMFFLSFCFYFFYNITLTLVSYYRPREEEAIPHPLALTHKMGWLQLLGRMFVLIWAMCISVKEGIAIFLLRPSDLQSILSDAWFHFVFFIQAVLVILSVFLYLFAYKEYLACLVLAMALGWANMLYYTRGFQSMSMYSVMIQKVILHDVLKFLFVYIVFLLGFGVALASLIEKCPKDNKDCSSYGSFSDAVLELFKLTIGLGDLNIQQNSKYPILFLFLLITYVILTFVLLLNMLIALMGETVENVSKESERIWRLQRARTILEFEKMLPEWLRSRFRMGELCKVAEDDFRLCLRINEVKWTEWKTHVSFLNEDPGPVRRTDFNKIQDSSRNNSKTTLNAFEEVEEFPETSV
measurement-protocol: Whole-cell patch-clamp, spontaneous current of TRPV3 G573S mutant in HEK 293T cells
test-conditions: −100 mV, read-out: IC50, inhibition of spontaneous current of TRPV3 G573S mutant
readout-kind: IC50

`COc1c(O)cc2oc3cc(O)c(CC=C(C)C)c(O)c3c(=O)c2c1CC=C(C)C` has a reported IC50 of 2040 nM
